B1: Histone H1t, residues 44 to 112; numbered along this chain, P22492 (parent)
chain: VSKLITEALSVSQERVGMSLVALKKALAAAGYDVEKNNSRIKLSLKSLVNKGILVQTRGTGASGSFKLS

Variants of: B1
Experiment: abundance fitness (aPCA) (normalised: wild type 0, dead -1); higher = more abundant; growth selection in yeast, the domain comes from the species named
Conditions: Homo sapiens
Please map values of abundance fitness to classes as shown: bottom bin = under -0.3, middle bin = from -0.3 up to -0.2, top bin = -0.2 and over

Returns: class label. Input: VSKLITEALSVSQERVGMSLVALKKALAAAGPDVEKNNSRIKLSLKSLVNKGILVQTRGTGASGSFKLS
middle bin

Next:
Returns: class label. Input: VSKLITEALSVSQERVGMSLVALKKALAAAGYDVEKNNSRIKLSLKSLVNKGILVQTRGTGASGSFKLK
top bin

Returns: class label. Input: VSKLITEALSVSQERVGMSLVALKKALAAAGYDVEKNNSRNKLSLKSLVNKGILVQTRGTGASGSFKLS
bottom bin
